- Test system: NCI-H82 cell
- Test Protocol: Cell viability (Promega CellTiter-Glo) of NCI-H82 cell
- Type: cell-based
- Condition Label: Homo sapiens; NCI-H82 cell, Table 1; read-out: IC50
pIC50: −log10 of the molar value.
Label scheme for pIC50: lower than 6 is f, 6 and above is t.

Compound	Classification
O=C1c2ccc(Cl)cc2CC1[n+]1ccc(NCc2ccccc2)cc1 (centres unmarked) [AB24840A]	f
O=C(C[n+]1ccc(NCc2ccccn2)cc1)c1ccc(Cl)cc1 [AB24822]	f
O=C(C[n+]1ccc2c(Cc3ccccc3)c[nH]c2c1)c1ccc(OC(F)(F)F)cc1 [AB27107]	f
O=C(C[n+]1ccc(NCc2ccccc2)cc1)c1ccc(C(F)(F)F)cc1 [AB24809A]	f
CC(Nc1cc[n+](CC(=O)c2ccc(Cl)cc2)cc1)c1ccccc1 (centres unmarked) [AB24814]	f

(Q) Identify whether the reported pIC50 of the following compound is 6 or greater: Cc1ccc(C(=O)C[n+]2ccc(NCc3ccccc3)cc2)cc1 [AB24845A]
(A) t

(Q) Identify whether the reported pIC50 of the following compound is 6 or greater: Cc1ccccc1C(=O)C[n+]1ccc2c(Cc3ccccc3)c[nH]c2c1 [AB24861]
(A) f

(Q) Identify whether the reported pIC50 of the following compound is 6 or greater: O=C(C[n+]1ccc2c(c1)C=CCC(c1ccccc1)N2)c1ccc(Cl)cc1 (centres unmarked) [AB24839B]
(A) f

(Q) Identify whether the reported pIC50 of the following compound is 6 or greater: O=C(C[n+]1ccc2c(ccn2Cc2ccccc2)c1)c1cccc(Cl)c1 [AB24991]
(A) t

(Q) Identify whether the reported pIC50 of the following compound is 6 or greater: Cc1ccc2c(c1)CC([n+]1ccc(NCc3ccccc3)cc1)C2=O (centres unmarked) [AB24906]
(A) f

These measurements were taken from patent US20240124445A1.
